The values you see were collected from patent US7563813B2.

subject.of.test: hSFRP-1 (Homo sapiens, UniProt Q8N474)
Construct: expressed in transfected cells; host or cells: U2OS osteosarcoma cells (ATCC, HTB 96), transient co-transfection with Wnt 3, Wnt3A or Wnt 1, 16x TCF-tk-Luciferase reporter and CMV-beta-gal
assay.remarks: Cell-Based Assay for In Vitro Measurement of SFRP-1/SARP2 Antagonist Activity (U2OS cells, 16x TCF-tk-Luciferase reporter, Wnt + hSFRP-1 co-transfection)
details: initial single dose screening at 10 μM, luciferase reporter activity, fold induction over SFRP-1 control
measurement.name: fold induction at 10 µM

| compound | measurement.name | measured |
| --- | --- | --- |
| COC(=O)c1c(NC(=O)CC2SC(=N)NC2=O)sc2c1CCC(OC)C2 (centres unmarked) | fold induction at 10 µM | 1.5 |
| CCOC(=O)c1cc(CC)sc1NC(=O)CC1SC(=N)NC1=O (centres unmarked) | fold induction at 10 µM | 1.5 |
| COC(=O)c1scc(C)c1NC(=O)CC1SC(=N)NC1=O (centres unmarked) | fold induction at 10 µM | 1 |
| N=C1NC(=O)C(CC(=O)Nc2cccc(Oc3ccccc3)c2)S1 (centres unmarked) | fold induction at 10 µM | 1.5 |
| CC(=O)Nc1cccc(NC(=O)CC2SC(=N)NC2=O)c1 (centres unmarked) | fold induction at 10 µM | 1.3 |

----------
subject.of.test: hSFRP-1 (Homo sapiens)
Construct: expressed in transfected cells; host or cells: U2OS osteosarcoma cells (ATCC, HTB 96), transient co-transfection with Wnt 3, Wnt3A or Wnt 1, 16x TCF-tk-Luciferase reporter and CMV-beta-gal
assay.remarks: Cell-Based Assay for In Vitro Measurement of SFRP-1/SARP2 Antagonist Activity (U2OS cells, 16x TCF-tk-Luciferase reporter, Wnt + hSFRP-1 co-transfection)
details: initial single dose screening at 10 μM, luciferase reporter activity, fold induction over SFRP-1 control
measurement.name: fold induction at 10 µM

Example compounds with recorded fold induction at 10 µM:
| compound | fold induction at 10 µM |
| --- | --- |
| N=C1NC(=O)C(CC(=O)Nc2cccc(Br)c2)S1 (centres unmarked) [Example 2] | 2 |
| CCOC(=O)c1c(NC(=O)CC2SC(=N)NC2=O)sc(Br)c1CNc1ccc(F)cc1 (centres unmarked) [Example 62] | 2 |

(I) N=C1NC(=O)C(CC(=O)Nc2cccc([N+](=O)[O-])c2)S1 (centres unmarked) [Example 29]
(II) Cc1cc(NC(=O)CC2SC(=N)NC2=O)on1 (centres unmarked) [Example 13]
(III) CCOC(=O)c1c(NC(=O)CC2SC(=N)NC2=O)sc(-c2ccccc2)c1C (centres unmarked) [Example 58]
Rank entries according to their fold induction at 10 µM, from the largest number down. // format: requested-order list of labels
I, II, III
(I: 1.7, II: 1, III: 0.7)

(P) CC(C)(C)OC(=O)c1cc(-c2ccccc2)sc1NC(=O)CC1SC(=N)NC1=O (centres unmarked) [Example 55]
(Q) CCOC(=O)c1c(NC(=O)CC2SC(=N)NC2=O)sc(Br)c1CN(C)c1ccc(Cl)cc1 (centres unmarked) [Example 61]
Identify the entry with the larger fold induction at 10 µM. Options: P and Q Your answer should be the label of the entry you select.
P
(P: 1.2, Q: 0.7)

(I) N=C1NC(=O)C(CC(=O)Nc2ccc(Cl)cc2Cl)S1 (centres unmarked) [Example 7]
(II) N=C1NC(=O)C(CC(=O)Nc2ccc(F)c(F)c2)S1 (centres unmarked) [Example 9]
Identify the entry with the larger fold induction at 10 µM. Options: I and II Your answer should be the label of the entry you select.
II

----------
subject.of.test: hSFRP-1 (Homo sapiens, UniProt Q8N474)
Construct: expressed in transfected cells; host or cells: U2OS osteosarcoma cells (ATCC, HTB 96), transient co-transfection with Wnt 3, Wnt3A or Wnt 1, 16x TCF-tk-Luciferase reporter and CMV-beta-gal
assay.remarks: Cell-Based Assay for In Vitro Measurement of SFRP-1/SARP2 Antagonist Activity (U2OS cells, 16x TCF-tk-Luciferase reporter, Wnt + hSFRP-1 co-transfection)
details: initial single dose screening at 10 μM, ratio not defined
measurement.name: Ratio

Example compounds with recorded Ratio:
| compound | measured |
| --- | --- |
| CC(C)(C)OC(=O)c1cc(-c2ccccc2)sc1NC(=O)CC1SC(=N)NC1=O (centres unmarked) | 0.9 |
| N=C1NC(=O)C(CC(=O)Nc2cccc(C(N)=O)c2)S1 (centres unmarked) | 1.0 |
| CCOC(=O)c1c(NC(=O)CC2SC(=N)NC2=O)sc(Br)c1CNc1ccccc1 (centres unmarked) | 2.4 |
| CCOC(=O)c1ccccc1NC(=O)CC1SC(=N)NC1=O (centres unmarked) | 1.1 |
| N=C1NC(=O)C(CC(=O)Nc2cccc(Cl)c2Cl)S1 (centres unmarked) | 1.0 |

(P) CCOC(=O)c1cccc(NC(=O)CC2SC(=N)NC2=O)c1 (centres unmarked)
(Q) N=C1NC(=O)C(CC(=O)Nc2cccc(Cl)c2)S1 (centres unmarked)
(R) N=C1NC(=O)C(CC(=O)NCc2cccc(C(F)(F)F)c2)S1 (centres unmarked)
rank_up(items): orders items by reported Ratio in ascending numerical order. // format: requested-order list of labels
R, P, Q

(1) N=C1NC(=O)C(CC(=O)NCc2ccccc2)S1 (centres unmarked)
(2) CCOC(=O)c1c(NC(=O)CC2SC(=N)NC2=O)sc(Br)c1CNc1ccc(F)cc1 (centres unmarked)
Smaller Ratio value? Options are 1 and 2 Your answer should be the label of the entry you select.
1

----------
subject.of.test: hSFRP-1 (Homo sapiens)
Construct: expressed in transfected cells; host or cells: U2OS osteosarcoma cells (ATCC, HTB 96), transient co-transfection with Wnt 3, Wnt3A or Wnt 1, 16x TCF-tk-Luciferase reporter and CMV-beta-gal
Sequence (Q8N474 32-314): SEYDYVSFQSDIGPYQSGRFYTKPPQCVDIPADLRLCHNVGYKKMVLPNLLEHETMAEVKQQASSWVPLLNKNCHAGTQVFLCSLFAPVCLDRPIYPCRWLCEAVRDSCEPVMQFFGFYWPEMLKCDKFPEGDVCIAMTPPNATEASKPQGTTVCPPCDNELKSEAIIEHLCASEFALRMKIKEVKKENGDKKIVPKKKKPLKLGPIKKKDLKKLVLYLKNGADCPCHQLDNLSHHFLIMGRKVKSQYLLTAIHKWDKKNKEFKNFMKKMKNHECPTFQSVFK
assay.remarks: Cell-Based Assay for In Vitro Measurement of SFRP-1/SARP2 Antagonist Activity (U2OS cells, 16x TCF-tk-Luciferase reporter, Wnt + hSFRP-1 co-transfection)
details: initial single dose screening at 10 μM, ratio not defined
measurement.name: Ratio

(a) N=C1NC(=O)C(CC(=O)Nc2cccc([N+](=O)[O-])c2)S1 (centres unmarked) [Example 29]
(b) COC(=O)c1cc(-c2ccccc2)sc1NC(=O)CC1SC(=N)NC1=O (centres unmarked) [Example 56]
Smaller Ratio value? Options are a and b Your answer should be the label of the entry you select.
b
(b: 0.9, a: 1.4)

(P) CCOC(=O)c1c(-c2ccccc2)csc1NC(=O)CC1SC(=N)NC1=O (centres unmarked) [Example 45]
(Q) COC(=O)c1sc(C(C)(C)C)cc1NC(=O)CC1SC(=N)NC1=O (centres unmarked) [Example 42]
Identify the entry with the larger Ratio. Options: P and Q Your answer should be the label of the entry you select.
Q

(A) COC(=O)c1cc(OC)c(OC)cc1NC(=O)CC1SC(=N)NC1=O (centres unmarked) [Example 53]
(B) N=C1NC(=O)C(CC(=O)Nc2ccc(Cl)c(Cl)c2)S1 (centres unmarked) [Example 6]
Smaller Ratio value? Options are A and B Your answer should be the label of the entry you select.
A
(A: 1.0, B: 1.7)

----------
subject.of.test: hSFRP-1 (Homo sapiens)
Construct: expressed in transfected cells; host or cells: U2OS osteosarcoma cells (ATCC, HTB 96), transient co-transfection with Wnt 3, Wnt3A or Wnt 1, 16x TCF-tk-Luciferase reporter and CMV-beta-gal
assay.remarks: Cell-Based Assay for In Vitro Measurement of SFRP-1/SARP2 Antagonist Activity (U2OS cells, 16x TCF-tk-Luciferase reporter, Wnt + hSFRP-1 co-transfection)
details: initial single dose screening at 10 μM, luciferase reporter activity, fold induction over SFRP-1 control
measurement.name: fold induction at 10 µM

| molecule | subject.of.test | fold induction at 10 µM |
| --- | --- | --- |
| N=C1NC(=O)C(CC(=O)NCc2ccccc2C(F)(F)F)S1 (centres unmarked) | hSFRP-1 (Homo sapiens) | 1.2 |
| CCOC(=O)c1ccccc1NC(=O)CC1SC(=N)NC1=O (centres unmarked) | hSFRP-1 (Homo sapiens) | 1.1 |
| CCOC(=O)c1c(-c2ccco2)csc1NC(=O)CC1SC(=N)NC1=O (centres unmarked) | hSFRP-1 (Homo sapiens) | 1.1 |
| N=C1NC(=O)C(CC(=O)Nc2cccc(C(N)=O)c2)S1 (centres unmarked) | hSFRP-1 (Homo sapiens) | 1.2 |
| COC(=O)c1cc(Cl)ccc1NC(=O)CC1SC(=N)NC1=O (centres unmarked) | hSFRP-1 (Homo sapiens) | 1.1 |
